target: YbtE (Yersinia pestis, UniProt Q56950); assay: biochemical
Sequence (Q56950 1-525): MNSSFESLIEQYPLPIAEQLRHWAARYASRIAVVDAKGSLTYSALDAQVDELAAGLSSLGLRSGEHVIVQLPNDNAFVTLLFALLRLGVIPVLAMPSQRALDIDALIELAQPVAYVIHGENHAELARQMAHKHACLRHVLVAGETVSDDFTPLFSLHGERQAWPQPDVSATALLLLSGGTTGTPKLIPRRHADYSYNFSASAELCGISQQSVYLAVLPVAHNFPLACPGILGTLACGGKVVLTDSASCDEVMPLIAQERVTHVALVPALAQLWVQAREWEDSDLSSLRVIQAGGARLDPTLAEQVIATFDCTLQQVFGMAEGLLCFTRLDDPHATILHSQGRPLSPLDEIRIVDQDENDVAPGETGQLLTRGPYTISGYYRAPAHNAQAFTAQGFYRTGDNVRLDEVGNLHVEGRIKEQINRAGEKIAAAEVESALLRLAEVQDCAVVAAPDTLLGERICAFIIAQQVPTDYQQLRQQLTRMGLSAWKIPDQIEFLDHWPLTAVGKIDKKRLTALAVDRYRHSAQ
QUANTITY NAME: IC50

COMPOUND	TARGET UNDER TEST	QUANTITY NAME	MEASURED VALUE
Nc1ncnc2c1ncn2[C@@H]1O[C@H](COS(=O)(=O)NC(=O)c2ccccc2O)[C@@H](O)[C@H]1O [salicyl-AMS, 5′-O—[N-(salicyl)sulfamoyl]-adenosine]	YbtE (Yersinia pestis, UniProt Q56950)	IC50	0.01 to 0.015 µM

----------
tested on: Y. pestis KIM6-2082.1+; assay: microbe, parasite or virus in culture; format: cell-based, Yersinia pestis; details: Yersinia pestis, read-out: IC50, growth inhibition
QUANTITY NAME: IC50

MOLECULE	QUANTITY NAME	MEASURED VALUE
Nc1ncnc2c1ncn2[C@@H]1O[C@H](COS(=O)(=O)NC(=O)c2ccccc2O)[C@@H](O)[C@H]1O [salicyl-AMS, 5′-O—[N-(salicyl)sulfamoyl]-adenosine]	IC50	~50 µM
